Test system: Aedes aegypti larvae
run description: Mosquito larvicidal assay
Format: in vivo
particulars: Aedes aegypti, 24 h
Cut-off 9 µg/mL on LC50: below means met, at or above means not met.

{"compound": "Cc1nc2ccccc2c(=O)n1CC(=O)Nc1ccc(Cl)cc1", "discrete label": "not met"}
{"compound": "Cc1nc2ccccc2c(=O)n1CC(=O)Nc1ccccc1Cl", "discrete label": "not met"}
{"compound": "Cc1nc2ccccc2c(=O)n1CC(=O)Nc1ccc(Br)cc1", "discrete label": "met"}
{"compound": "Cc1nc2ccccc2c(=O)n1CC(=O)Nc1cccc(Cl)c1", "discrete label": "not met"}
{"compound": "Cc1ccc(NC(=O)Cn2c(C)nc3ccccc3c2=O)cc1", "discrete label": "met"}
{"compound": "CC1(C)C(C=C(Cl)Cl)C1C(=O)OCc1cccc(Oc2ccccc2)c1 (stereo not shown) [permethrin, reference compound]", "discrete label": "met"}

Source: paper PMC10357533
